Tested on: HCT-116 colon
Response enum: active, inactive

For this molecule, state the assay outcome: COc1ccc(-c2noc(C(=O)O)c2-c2cc(OC)c(OC)c(OC)c2)cc1
inactive

For this molecule, state the assay outcome: c1ccc(C2ONC3=NCCN32)cc1 (stereo not given)
inactive

For this molecule, state the assay outcome: O=S(=O)(/N=c1\scc(-c2ccccc2)n1-c1ccccc1)c1ccc(N2N=C3c4ccccc4CC3C2c2ccc(Cl)cc2)cc1 (stereo not given)
inactive

For this molecule, state the assay outcome: CCc1c2c(nc3ccc(OCc4ccc(B(O)O)cc4)cc13)-c1cc3c(c(=O)n1C2)COC(=O)[C@]3(O)CC
active

For this molecule, state the assay outcome: O=C(Oc1cccnc1)c1cccnc1Nc1ccnc(C(F)(F)F)c1
inactive
